Assay notes: Stability in rat liver homogenate
Format: in vitro ADME
Assay context: male, rat, rat liver homogenate, pH 7.5, 0.5 mM compound, 37 °C; read-out: Rat liver homgenate t1/2 (converted)
Method: Fresh rat liver homogenate was prepared by isolating liver from euthanized male rats, according to approved Home Office procedures. The liver was chopped with scissors and rinsed with medium (0.25 M sucrose, 25 mM KCl, 5 mM MgCl2 and 50 mM Tris/HCl, pH7.5) to remove trapped blood. […] The supernatant was then analyzed by HPLC as for the Caco-2 permeability studies, and the half-life of the compounds calculated according to the method of Vig et al..
Peptide text beside a SMILES is read from it.
Overview of recorded half-life at 0.5 mM for various compounds
I only need the number, in h, no unit after it.

>>> experimental_result("CC(C)c1cccc(C(C)C)c1OC(=O)C[C@H](NC(=S)[C@H](C)N)C(=O)O [Compound 3]")
7

Now look at this entry.
Find the recorded half-life at 0.5 mM belonging to C[C@H](NC(=O)[C@@H](N)Cc1c[nH]c2ccccc12)C(=O)O [L-Trp-L-Ala, reference compound] (H-Trp-Ala-OH) and report it.
0.15

---

Counter-ions that a name gives are not always drawn.
Known melting point of a selection of compounds

>>> experimental_result("CC(=O)N[C@H]1[C@H]([C@H](O)[C@H](O)COC(=O)C[C@H](NC(=S)[C@H](C)N)C(=O)O)OC(C(=O)O)=C[C@@H]1NC(=N)N (as salt: salt) (hydrate or solvate) [Compound 9]")
"210 to 212 °C"

Return reported melting point; argument: C[C@H](N)C(=S)N[C@@H](COC(=O)C[C@@H](CN)c1ccc(Cl)cc1)C(=O)O (as salt: salt) (hydrate or solvate) [Compound 10]
112 to 115 °C

Queued: CC(C)NC[C@@H](COc1ccc(CC(N)=O)cc1)OC(=O)C[C@H](NC(=S)[C@H](C)N)C(=O)O (as salt: salt) [Compound 8]
118 to 121 °C

// query: COc1c(C)c2c(c(O)c1C/C=C(\C)CCC(=O)OC[C@H](NC(=S)[C@H](C)N)C(=O)O)C(=O)OC2 (as salt: salt) (hydrate or solvate) [Compound 11]
140 to 143 °C

---

Assay notes: in vivo
Assay context: male, Sprague-Dawley, rat, po, 6 mg/kg
Measurement kind: AUC (ng·h/mL)
Give the value, in units of ng·h/mL, as a plain number.

So what does the record say about AUC for CC(C)Cc1ccc(C(C)C(=O)O)cc1 (stereo not shown) ?
14000

---

Assay notes: in vivo
Assay context: male, Sprague-Dawley, rat, po, 6 mg/kg, tmax
Measurement kind: Tmax (h)
Form entry: value (h) — number only.

Item CC(C)Cc1ccc(C(C)C(=O)O)cc1 (stereo not shown) [Ibuprofen] has what recorded Tmax?
1

---

Assay notes: Oral pharmacokinetics in male Sprague-Dawley rats
Assay context: male, Sprague-Dawley, rat, plasma, po, 7.6 mg/kg, tmax, 3 at 7.6 mg kg^−1 oral, rat plasma, assayed compound intact 3
Measurement kind: Tmax (h)
Numbers only here, please. The scale is h.

Consider the compound shown here: `CC(C)c1cccc(C(C)C)c1OC(=O)C[C@H](NC(=S)[C@H](C)N)C(=O)O` What is its recorded Tmax?
5.2

---

Assay notes: Caco-2 monolayer apical to basolateral transport
Format: in vitro ADME
Assay context: human, 2 mM prodrug, mean ± RSD, read-out: Overall Papp
Quick reference for Papp at 1 h, 2 mM among some compounds
Answer in ×10⁻⁶ cm/s, number only, no unit symbol.

Examples with their reported Papp at 1 h, 2 mM follow.
>>> experimental_result("CC(C)Cc1ccc([C@@H](C)C(=O)OC[C@H](NC(=S)[C@H](C)N)C(=O)O)cc1")
3.7
>>> experimental_result("C[C@H](N)C(=S)N[C@@H](COC(=O)CC1(CN)CCCCC1)C(=O)O")
0.6

Here is the next item to consider.
Which Papp at 1 h, 2 mM value is on record for C[C@H](NC(=O)[C@@H](N)Cc1ccccc1)C(N)=S [FSA, PheΨ[CS-NH]-Ala, reference compound] ?
3

---

Assay notes: Oral pharmacokinetics in male Sprague-Dawley rats
Assay context: male, Sprague-Dawley, rat, plasma, po, 7.6 mg/kg
Measurement kind: AUC (ng·h/mL)
Give a bare numeral; the unit ng·h/mL is implied.

Using the record for CC(C)c1cccc(C(C)C)c1OC(=O)C[C@H](NC(=S)[C@H](C)N)C(=O)O [Compound 3] , report its AUC.
3200

---

Experimental target: rabbit PepT1 (Oryctolagus cuniculus)
Construct: expressed in transfected cells; host or cells: Xenopus laevis oocytes
Sequence (P36836 1-707): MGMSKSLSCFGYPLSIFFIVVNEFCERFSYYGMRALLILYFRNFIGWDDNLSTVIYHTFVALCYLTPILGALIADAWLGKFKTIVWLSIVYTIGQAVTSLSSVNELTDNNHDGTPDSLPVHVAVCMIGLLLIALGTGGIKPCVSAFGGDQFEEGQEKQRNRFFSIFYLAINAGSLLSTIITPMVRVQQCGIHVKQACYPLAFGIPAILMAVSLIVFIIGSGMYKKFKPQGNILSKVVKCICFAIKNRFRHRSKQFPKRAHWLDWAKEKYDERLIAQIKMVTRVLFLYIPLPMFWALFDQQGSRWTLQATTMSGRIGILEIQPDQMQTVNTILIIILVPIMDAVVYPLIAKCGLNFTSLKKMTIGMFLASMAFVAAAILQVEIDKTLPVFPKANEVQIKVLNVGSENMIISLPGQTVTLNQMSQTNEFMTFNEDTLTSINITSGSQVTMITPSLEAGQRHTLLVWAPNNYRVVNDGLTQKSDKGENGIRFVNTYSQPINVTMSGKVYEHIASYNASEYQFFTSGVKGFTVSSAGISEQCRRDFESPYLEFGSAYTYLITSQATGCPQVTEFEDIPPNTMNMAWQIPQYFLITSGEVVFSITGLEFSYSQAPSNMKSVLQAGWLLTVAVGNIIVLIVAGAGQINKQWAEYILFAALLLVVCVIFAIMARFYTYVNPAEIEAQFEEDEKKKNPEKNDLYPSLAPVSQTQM
Assay notes: Trans-stimulation efflux of [3H]-D-Phe-L-Gln from rabbit PepT1 expressing oocytes
Assay type: cell-based
Assay context: 10 mM prodrug, [3H]-D-Phe-L-Gln efflux, compared to GlyGln
Measurement kind: Trans-stimulated efflux?

# annotated cases, reported Trans-stimulated efflux? shown
>>> experimental_result("CC(=O)N[C@H]1[C@H]([C@H](O)[C@H](O)COC(=O)C[C@H](NC(=S)[C@H](C)N)C(=O)O)OC(C(=O)O)=C[C@@H]1NC(=N)N [Compound 9]")
"No"
>>> experimental_result("C[C@H](N)C(=S)N[C@@H](COC(=O)C[C@@H](CN)c1ccc(Cl)cc1)C(=O)O [Compound 10]")
"No"
>>> experimental_result("CC(C)c1cccc(C(C)C)c1OC(=O)C[C@H](NC(=S)[C@H](C)N)C(=O)O [Compound 3]")
"Yes"
>>> experimental_result("CC(C)Cc1ccc([C@@H](C)C(=O)OC[C@H](NC(=S)[C@H](C)N)C(=O)O)cc1 [Compound 1]")
"Yes"
>>> experimental_result("C[C@H](N)C(=S)N[C@@H](COC(=O)CC1(CN)CCCCC1)C(=O)O [Compound 2]")
"Yes"

Recall the recorded Trans-stimulated efflux? for CC(C)NC[C@@H](COc1ccc(CC(N)=O)cc1)OC(=O)C[C@H](NC(=S)[C@H](C)N)C(=O)O [Compound 8] with rabbit PepT1 (Oryctolagus cuniculus) and state it.
No

Same again, this time with C[C@H](NC(=O)[C@@H](N)Cc1ccccc1)C(N)=S [FSA, PheΨ[CS-NH]-Ala, reference compound]
No

src = paper PMC6107785
